Kindly supply the reported difference in %Control from compound Ib at 1 µM values for the records listed here.
Study System: JAK3(JH1domain-catalytic) (Homo sapiens, UniProt P52333)
Construct: JAK3(JH1domain-catalytic); purchased Eurofins DiscoverX KINOMEscan (scanTK)
Sequence (P52333 822-1124 limits assumed): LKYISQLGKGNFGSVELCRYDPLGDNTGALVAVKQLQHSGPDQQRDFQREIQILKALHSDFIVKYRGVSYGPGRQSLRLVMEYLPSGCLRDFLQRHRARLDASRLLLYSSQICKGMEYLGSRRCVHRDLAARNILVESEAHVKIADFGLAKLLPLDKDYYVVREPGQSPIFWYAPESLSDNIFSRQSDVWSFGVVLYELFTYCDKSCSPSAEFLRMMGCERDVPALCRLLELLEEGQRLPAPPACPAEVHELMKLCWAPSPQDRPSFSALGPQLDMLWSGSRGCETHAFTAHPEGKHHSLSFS
Test Protocol: KINOMEscan ScanTK
Type: binding
Conditions Used: @1000nM; JAK3(JH1domain-catalytic)

JAK3(JH1domain-catalytic) (Homo sapiens, UniProt P52333) difference in %Control from compound Ib at 1 µM of COC(=O)c1cnc(S(C)(=O)=O)nc1N1CCCC(n2nc(-c3ccc(Oc4ccccc4)cc3)c3c(N)ncnc32)C1 (stereo not shown) is 94.5%

JAK3(JH1domain-catalytic) (Homo sapiens, UniProt P52333) difference in %Control from compound Ib at 1 µM of CNC(=O)c1cnc(S(C)(=O)=O)nc1N1CCCC(n2nc(-c3ccc(Oc4ccccc4)cc3)c3c(N)ncnc32)C1 (stereo not shown) is 67.5%

JAK3(JH1domain-catalytic) (Homo sapiens, UniProt P52333) difference in %Control from compound Ib at 1 µM of CCOC(=O)c1cnc(S(C)(=O)=O)nc1N1CCC[C@@H](n2nc(-c3ccc(Oc4ccccc4)cc3)c3c(N)ncnc32)C1 is 94.5%

JAK3(JH1domain-catalytic) (Homo sapiens, UniProt P52333) difference in %Control from compound Ib at 1 µM of Cc1cnc(S(C)(=O)=O)nc1N1CCCC(n2nc(-c3ccc(Oc4ccccc4)cc3)c3c(N)ncnc32)C1 (stereo not shown) is 94.5%

---

Kindly supply the reported remaining binding at 1 µM values for the records listed here.
Study System: KIT(D816V) (Homo sapiens, UniProt P10721, D816V)
Construct: purchased Eurofins DiscoverX KINOMEscan (scanTK)
Sequence (P10721 26-976 D816V): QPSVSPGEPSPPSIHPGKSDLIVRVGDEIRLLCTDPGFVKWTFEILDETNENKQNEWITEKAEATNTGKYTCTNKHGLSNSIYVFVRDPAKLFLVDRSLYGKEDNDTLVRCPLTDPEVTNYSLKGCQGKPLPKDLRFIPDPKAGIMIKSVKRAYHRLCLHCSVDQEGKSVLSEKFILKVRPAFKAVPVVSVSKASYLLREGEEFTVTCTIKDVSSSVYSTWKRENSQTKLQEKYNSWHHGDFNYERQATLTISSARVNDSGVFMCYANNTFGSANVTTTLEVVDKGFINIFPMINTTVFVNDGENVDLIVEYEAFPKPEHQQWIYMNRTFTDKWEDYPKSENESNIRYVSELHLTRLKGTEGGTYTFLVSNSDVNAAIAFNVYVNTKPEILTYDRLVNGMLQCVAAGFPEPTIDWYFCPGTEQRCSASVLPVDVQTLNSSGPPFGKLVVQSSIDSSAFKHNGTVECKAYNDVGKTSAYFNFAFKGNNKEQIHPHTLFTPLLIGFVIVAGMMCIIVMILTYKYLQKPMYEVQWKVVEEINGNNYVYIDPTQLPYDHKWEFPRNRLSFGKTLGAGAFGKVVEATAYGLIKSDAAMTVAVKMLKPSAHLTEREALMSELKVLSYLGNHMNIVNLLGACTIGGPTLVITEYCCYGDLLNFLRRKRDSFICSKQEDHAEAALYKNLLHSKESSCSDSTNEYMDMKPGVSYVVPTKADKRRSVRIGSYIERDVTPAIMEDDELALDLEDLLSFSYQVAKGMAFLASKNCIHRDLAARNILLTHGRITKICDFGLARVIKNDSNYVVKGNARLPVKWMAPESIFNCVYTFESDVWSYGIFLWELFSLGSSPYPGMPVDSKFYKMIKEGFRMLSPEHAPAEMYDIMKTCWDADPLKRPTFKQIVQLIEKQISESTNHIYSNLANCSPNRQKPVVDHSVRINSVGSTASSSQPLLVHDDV
Test Protocol: KINOMEscan ScanTK
Assay type: binding
Conditions Used: @1000nM, read-out: %Control
Quick note: number first, unit second.

Data point: Cc1cnc(S(C)(=O)=O)nc1N1CCCC(n2nc(-c3ccc(Oc4ccccc4)cc3)c3c(N)ncnc32)C1 (centres unmarked) ; remaining binding at 1 µM = 74%

Data point: COC(=O)c1cnc(S(C)(=O)=O)nc1N1CCCC(n2nc(-c3ccc(Oc4ccccc4)cc3)c3c(N)ncnc32)C1 (centres unmarked) ; remaining binding at 1 µM = 85%

Data point: CCOC(=O)c1cnc(S(C)(=O)=O)nc1N1CCC[C@@H](n2nc(-c3ccc(Oc4ccccc4)cc3)c3c(N)ncnc32)C1 ; remaining binding at 1 µM = 85%

Data point: CNC(=O)c1cnc(S(C)(=O)=O)nc1N1CCCC(n2nc(-c3ccc(Oc4ccccc4)cc3)c3c(N)ncnc32)C1 (centres unmarked) ; remaining binding at 1 µM = 84%

Data point: C=CC(=O)N1CCC[C@@H](n2nc(-c3ccc(Oc4ccccc4)cc3)c3c(N)ncnc32)C1 [Compound 1g, Ibrutinib, reference compound] ; remaining binding at 1 µM = 86%

---

Kindly supply the reported IC50 values for the records listed here.
Study System: wild-type BTK (Homo sapiens, UniProt Q06187)
Sequence (Q06187 whole entry): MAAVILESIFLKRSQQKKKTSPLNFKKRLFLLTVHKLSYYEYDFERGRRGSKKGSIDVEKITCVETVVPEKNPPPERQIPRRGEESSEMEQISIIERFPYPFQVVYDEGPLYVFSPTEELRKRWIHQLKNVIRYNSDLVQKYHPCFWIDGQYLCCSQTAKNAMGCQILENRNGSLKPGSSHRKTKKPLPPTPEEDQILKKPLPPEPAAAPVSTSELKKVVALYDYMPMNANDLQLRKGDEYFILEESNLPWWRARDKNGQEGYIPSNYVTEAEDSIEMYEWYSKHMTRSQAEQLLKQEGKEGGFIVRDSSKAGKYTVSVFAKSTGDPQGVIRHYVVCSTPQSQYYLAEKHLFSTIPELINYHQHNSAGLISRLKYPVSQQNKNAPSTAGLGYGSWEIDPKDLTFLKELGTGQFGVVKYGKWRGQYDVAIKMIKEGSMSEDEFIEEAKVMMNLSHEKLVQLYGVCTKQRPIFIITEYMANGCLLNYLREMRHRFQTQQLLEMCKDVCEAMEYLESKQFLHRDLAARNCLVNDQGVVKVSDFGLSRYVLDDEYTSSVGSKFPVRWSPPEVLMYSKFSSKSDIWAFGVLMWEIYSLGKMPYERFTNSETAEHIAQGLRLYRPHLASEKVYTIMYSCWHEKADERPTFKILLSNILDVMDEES
Test Protocol: NanoBRET target engagement assay in HEK293 cells
Report the figure in nM without appending any unit label.

Data point: Cc1cnc(S(C)(=O)=O)nc1N1CCCC(n2nc(-c3ccc(Oc4ccccc4)cc3)c3c(N)ncnc32)C1 (centres unmarked) [Compound 8a] ; IC50 = 8

Data point: COC(=O)c1cnc(S(C)(=O)=O)nc1N1CCCC(n2nc(-c3ccc(Oc4ccccc4)cc3)c3c(N)ncnc32)C1 (centres unmarked) [Compound 8b] ; IC50 = 38

The values you see were collected from paper PMC11345841.
